This listing pairs compounds with measured Population Apoptotic (%).
Test system: U2OS
Assay: Multiplex assay against U2OS
Assay type: toxicity, cell-based
Conditions: human, 24 h, 1 µM, compound concentration 1 uM, replicate 1

compound | assay.system | unit.tag | Population Apoptotic (%)
C=CC(=O)Nc1cc(-n2c(=O)ccc3cnc4ccc(-c5ccc(NS(C)(=O)=O)cc5)cc4c32)ccc1C | U2OS | % | 28
CCCCN(CC)c1nc(C)nc2c1c(C)cn2-c1c(C)cc(C)cc1C.Cl | U2OS | % | 27
CCCc1cc(C)[nH]c(=O)c1CNC(=O)c1cc(-c2ccc(N3CCN(C(C)C)CC3)nc2)cc2c1cnn2C(C)C | U2OS | % | 71
CCCCCNC(=N)N/N=C/c1c[nH]c2ccc(OC)cc12.O=C(O)/C=C\C(=O)O [TEGASEROD MALEATE] | U2OS | % | 47
